- target: T1, Cyno ASGR-1 (cynomolgus monkey, UniProt P07306 1-291 (human entry))
- T1 construct: Expressed on HEK 293 cells or as membrane prep on beads; cDNA from XP_005582755; also called cynomologus monkey ASGR-1
- T1 chain: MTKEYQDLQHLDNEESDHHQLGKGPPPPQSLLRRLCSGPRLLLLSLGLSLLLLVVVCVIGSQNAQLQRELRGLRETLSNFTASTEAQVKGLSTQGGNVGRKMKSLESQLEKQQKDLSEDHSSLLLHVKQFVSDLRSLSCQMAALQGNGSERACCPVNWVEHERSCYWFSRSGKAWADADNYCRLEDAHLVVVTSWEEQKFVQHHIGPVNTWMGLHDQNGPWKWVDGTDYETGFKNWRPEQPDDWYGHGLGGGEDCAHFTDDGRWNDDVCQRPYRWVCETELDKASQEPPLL
- assay_comment: FACS on transfected HEK 293 cells or membrane preps on beads; Y = signal at least 2x irrelevant IgG
metric_name: binding result

- binder: "198G3 (antibody, V domains shown, Tested as hybridoma supernatant at normalized concentration) VH: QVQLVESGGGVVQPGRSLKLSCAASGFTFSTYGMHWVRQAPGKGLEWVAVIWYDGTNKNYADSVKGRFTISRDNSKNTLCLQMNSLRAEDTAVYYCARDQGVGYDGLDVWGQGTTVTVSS VL: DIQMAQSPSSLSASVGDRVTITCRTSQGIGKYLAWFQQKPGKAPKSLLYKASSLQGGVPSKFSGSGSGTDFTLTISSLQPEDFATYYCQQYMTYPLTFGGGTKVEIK"
  result_value: "binds"
- binder: "7F4 (antibody, V domains shown, Tested as hybridoma supernatant at normalized concentration) VH: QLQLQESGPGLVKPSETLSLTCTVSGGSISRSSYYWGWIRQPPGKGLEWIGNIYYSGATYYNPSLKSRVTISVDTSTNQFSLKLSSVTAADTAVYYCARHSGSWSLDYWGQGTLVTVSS VL: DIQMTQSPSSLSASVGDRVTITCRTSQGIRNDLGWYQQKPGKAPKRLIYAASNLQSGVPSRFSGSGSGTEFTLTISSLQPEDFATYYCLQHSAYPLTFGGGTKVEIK"
  result_value: "binds"
- binder: "194C10 (antibody, V domains shown, Tested as hybridoma supernatant at normalized concentration) VH: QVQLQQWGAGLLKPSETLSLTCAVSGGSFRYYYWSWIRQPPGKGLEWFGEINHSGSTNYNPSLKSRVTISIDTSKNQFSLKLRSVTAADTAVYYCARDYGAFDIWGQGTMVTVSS VL: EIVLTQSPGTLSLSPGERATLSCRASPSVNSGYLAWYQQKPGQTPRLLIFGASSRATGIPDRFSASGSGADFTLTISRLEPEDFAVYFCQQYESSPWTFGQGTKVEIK"
  result_value: "binds"
